- System: HeLa MZ
- experiment.description: LBPA endosome anti-LBPA integrated intensity (sum per cell), Z-score; higher = more LBPA staining
- experimental.context: compound concentration in added solution (µM; 5 µl added to 20 µl cells): 10; 18 h
Recorded measurements of LBPA endosome anti-LBPA integrated intensity (z-score), one per entry
Just the number, please.

The examples below pair each entry with its known result.
CCCCC1C(=O)N(c2ccccc2)N(c2ccc(O)cc2)C1=O (stereo not given)
-0.9
CCCCC(=O)O[C@H]1CC[C@H]2[C@@H]3CCc4cc(O)ccc4[C@H]3CC[C@]12C [Estradiol Valerate]
-0.788
Nc1ccc(S(=O)(=O)Nc2ccnn2-c2ccccc2)cc1
-1.02
NC(=O)N/N=C/c1ccc([N+](=O)[O-])o1
-0.605

Data request, read-out LBPA endosome anti-LBPA integrated intensity (z-score), for Cn1ccnc1S
-0.811

====

Recorded measurements of LBPA endosome anti-LBPA integrated intensity (z-score), one per entry
- Tested on: HeLa MZ
- experiment.description: LBPA endosome anti-LBPA integrated intensity (sum per cell), Z-score; higher = more LBPA staining
- experimental.context: compound concentration in added solution (µM; 5 µl added to 20 µl cells): 10; 18 h
Structures can show the parent of a compound that is named as a salt.
Just the number, please.

The examples below pair each entry with its known result.
Nc1ccc(C(=O)O)c(O)c1
-0.439
CN1CCC(=C2c3ccccc3C=Cc3ccccc32)CC1 [Cyproheptadine hydrochloride]
0.629
CCCCN1CCCCC1C(=O)Nc1c(C)cccc1C (centres undefined) [Bupivacaine hydrochloride]
-0.117

Data request, read-out LBPA endosome anti-LBPA integrated intensity (z-score), for CN1CCN2c3ccccc3Cc3ccccc3C2C1 (centres undefined) [Mianserine hydrochloride]
1.07

Data request, read-out LBPA endosome anti-LBPA integrated intensity (z-score), for CC(=O)O[C@]1(C(C)=O)CC[C@H]2[C@@H]3C=C(C)C4=CC(=O)CC[C@@H]4[C@H]3CC[C@@]21C [Nomegestrol acetate]
0.691

====

- System: A431
- experiment.description: filipin (cholesterol) integrated intensity within LBPA endosomes, Z-score; higher = more cholesterol in LBPA endosomes
- experimental.context: compound concentration in added solution (µM; 5 µl added to 20 µl cells): 10; 18 h
Tick yes if filipin (z-score) is -0.5 or greater. Tick no if filipin (z-score) is less than -0.5.

CC(C)(O/N=C(\C(=O)N[C@@H]1C(=O)N2C(C(=O)[O-])=C(C[n+]3ccccc3)CS[C@H]12)c1csc(N)n1)C(=O)O [Ceftazidime pentahydrate]
no

Quick check: does N=C(N)c1ccc(OCCCCCOc2ccc(C(=N)N)cc2)cc1 [Pentamidine isethionate] have filipin (z-score) greater than or equal to -0.5?
yes

Quick check: does CCCC1O[C@@H]2C[C@H]3[C@@H]4CCC5=CC(=O)C=C[C@]5(C)[C@H]4[C@@H](O)C[C@]3(C)[C@]2(C(=O)CO)O1 (stereo partly drawn) [Budesonide] have filipin (z-score) greater than or equal to -0.5?
yes

Quick check: does CN1CCCCC1CCN1c2ccccc2Sc2ccc([S+](C)[O-])cc21 (stereo not drawn) [Mesoridazine besylate] have filipin (z-score) greater than or equal to -0.5?
yes

Quick check: does O=C(NCC1CCCCN1)c1cc(OCC(F)(F)F)ccc1OCC(F)(F)F (stereo not drawn) [Flecainide acetate] have filipin (z-score) greater than or equal to -0.5?
yes

====

- System: A431
- experiment.description: whole-cell filipin (free cholesterol) integrated intensity, Z-score; higher = more cholesterol staining
- experimental.context: compound concentration in added solution (µM; 5 µl added to 20 µl cells): 10; 18 h
Structures can show the parent of a compound that is named as a salt.
Tick class 1 if whole-cell filipin (z-score) is 0.1 or greater. Tick class 0 if whole-cell filipin (z-score) is less than 0.1.

Solved entries:
NC1CCN(c2c(F)cc3c(=O)c(C(=O)O)cn(C4CC4)c3c2Cl)C1 (stereo not drawn)
class 0
CCOc1ccc(Cc2nccc3cc(OCC)c(OCC)cc23)cc1OCC [Ethaverine hydrochloride]
class 1
CC1CS(=O)(=O)CCN1/N=C/c1ccc([N+](=O)[O-])o1 (stereo not drawn)
class 0
Clc1ccc(C(Cn2ccnc2)OCc2csc3c(Cl)cccc23)c(Cl)c1 (stereo not drawn) [Sertaconazole nitrate]
class 1
O=C(c1ccc(OCCN2CCCCC2)cc1)c1c(-c2ccc(O)cc2)sc2cc(O)ccc12 [Raloxifene hydrochloride]
class 1

Quick check: does Oc1c(I)cc(Cl)c2cccnc12 have whole-cell filipin (z-score) greater than or equal to 0.1?
class 0

Quick check: does CC(C)COCC(CN(Cc1ccccc1)c1ccccc1)N1CCCC1 (stereo not drawn) [Bepridil hydrochloride] have whole-cell filipin (z-score) greater than or equal to 0.1?
class 0

Quick check: does C=C1c2cccc(O)c2C(=O)C2=C(O)[C@]3(O)C(=O)C(C(N)=O)=C(O)[C@@H](N(C)C)[C@@H]3[C@@H](O)[C@H]12 [Methacycline hydrochloride] have whole-cell filipin (z-score) greater than or equal to 0.1?
class 1

====

- Tested on: HeLa MZ
- experiment.description: LBPA endosome anti-LBPA integrated intensity (sum per cell), Z-score; higher = more LBPA staining
- experimental.context: compound concentration in added solution (µM; 5 µl added to 20 µl cells): 10; 18 h
Structures can show the parent of a compound that is named as a salt.
experimental.endpoint: LBPA endosome anti-LBPA integrated intensity (z-score)
Just the number, please.

Cc1c(O)c(=O)n(-c2ccccc2)n1C [Antipyrine, 4-hydroxy]
-0.193

Data request, read-out LBPA endosome anti-LBPA integrated intensity (z-score), for CN(C)CCC=C1c2ccccc2COc2ccccc21 [Doxepin hydrochloride]
1.22

Data request, read-out LBPA endosome anti-LBPA integrated intensity (z-score), for C/C=C(/C(=C/C)c1ccc(O)cc1)c1ccc(O)cc1
-0.673

Data request, read-out LBPA endosome anti-LBPA integrated intensity (z-score), for CS(=O)(=O)Nc1ccc([N+](=O)[O-])cc1Oc1ccccc1 [Nimesulide]
-0.741

Data request, read-out LBPA endosome anti-LBPA integrated intensity (z-score), for CC(C)/N=c1\cc2n(-c3ccc(Cl)cc3)c3ccccc3nc-2cc1Nc1ccc(Cl)cc1
1.42

Data request, read-out LBPA endosome anti-LBPA integrated intensity (z-score), for O=C(O)Cc1sc(-c2ccccc2)nc1-c1ccc(Cl)cc1
-1.44

Data request, read-out LBPA endosome anti-LBPA integrated intensity (z-score), for C=CC1=C(C(=O)O)N2C(=O)[C@@H](NC(=O)/C(=N\OCC(=O)O)c3csc(N)n3)[C@H]2SC1
-0.00426

Data request, read-out LBPA endosome anti-LBPA integrated intensity (z-score), for CC[N+](CC)(CC)CCOc1cccc(OCC[N+](CC)(CC)CC)c1OCC[N+](CC)(CC)CC [Gallamine triethiodide]
-0.807

Data request, read-out LBPA endosome anti-LBPA integrated intensity (z-score), for CCc1cccc2c3c([nH]c12)C(CC)(CC(=O)O)OCC3 (configuration not stated)
-1.97

Data request, read-out LBPA endosome anti-LBPA integrated intensity (z-score), for O=C1c2ccccc2S(=O)(=O)N1CCCCN1CCN(c2ncccn2)CC1
0.911

Data request, read-out LBPA endosome anti-LBPA integrated intensity (z-score), for CC1Cc2ccccc2N1NC(=O)c1ccc(Cl)c(S(N)(=O)=O)c1 (configuration not stated) [Indapamide]
0.5

Data request, read-out LBPA endosome anti-LBPA integrated intensity (z-score), for Nc1nc2c(ncn2COCCO)c(=O)[nH]1
-1.1

Data request, read-out LBPA endosome anti-LBPA integrated intensity (z-score), for CN1CCN(CCCN2c3ccccc3Sc3ccc(Cl)cc32)CC1 [Prochlorperazine dimaleate]
1.36

Data request, read-out LBPA endosome anti-LBPA integrated intensity (z-score), for OCC(O)CN1CCN(c2ccccc2)CC1 (racemic) [Dropropizine (R,S)]
-0.821

Data request, read-out LBPA endosome anti-LBPA integrated intensity (z-score), for CC(C)(C)NCC(O)c1ccc(O)c(CO)c1 (configuration not stated)
-0.311

Data request, read-out LBPA endosome anti-LBPA integrated intensity (z-score), for CC1(C)O[C@@H]2C[C@H]3[C@@H]4C[C@H](F)C5=CC(=O)CC[C@]5(C)[C@H]4[C@@H](O)C[C@]3(C)[C@]2(C(=O)CO)O1 [Flurandrenolide]
-0.763

Data request, read-out LBPA endosome anti-LBPA integrated intensity (z-score), for Cc1onc(-c2c(F)cccc2Cl)c1C(=O)N[C@@H]1C(=O)N2[C@@H]1SC(C)(C)[C@@H]2C(=O)O [Flucloxacillin sodium]
0.147

====

- Tested on: HeLa MZ
- experiment.description: filipin (cholesterol) integrated intensity within LBPA endosomes, Z-score; higher = more cholesterol in LBPA endosomes
- experimental.context: compound concentration in added solution (µM; 5 µl added to 20 µl cells): 10; 18 h
Where a name gives a salt, the structure may show the parent alone.
Recorded measurements of filipin (z-score), one per entry

The examples below pair each entry with its known result.
Nc1ccn([C@H]2CC[C@@H](CO)O2)c(=O)n1
-0.459
CC(=O)O[C@]1(C(C)=O)CC[C@H]2[C@@H]3C=C(Cl)C4=CC(=O)CC[C@]4(C)[C@H]3CC[C@@]21C [Chlormadinone acetate]
0.534
CCCc1cc(=O)[nH]c(=S)[nH]1
-0.457
O=C(O)CNC(=O)C(CS)Cc1ccccc1 (centres undefined)
-0.682
O=c1oc2ccccc2c(O)c1Cc1c(O)c2ccccc2oc1=O
-0.672
COc1cc(NC(C)CCCN)c2ncccc2c1 (centres undefined) [Primaquine diphosphate]
0.116

Data request, read-out filipin (z-score), for CCN1C(=O)NC(c2ccccc2)C1=O (centres undefined)
-0.513

Data request, read-out filipin (z-score), for CC(C)(C)NC[C@H](O)c1ccc(O)c(CO)c1 [Levalbuterol hydrochloride]
-0.476

Data request, read-out filipin (z-score), for O=C(Nc1cccc2c(=O)cc(-c3nnn[nH]3)oc12)c1ccc(OCCCCc2ccccc2)cc1
-0.637
